Test system: U2OS
Experiment: Multiplex assay against U2OS
Assay type: toxicity, cell-based
Settings: human, 48 h, 10 µM, compound concentration 10 uM, replicate 2
measurement kind: Population Normal (%)
Give bare numbers, in %.

Cc1ccc2c(c1)c1c(n2CCc2ccc(C)nc2)CCN(C)C1 [LATREPIRDINE]: 95
CCOC(=O)Nc1cc(-c2ccc(C)c(NS(C)(=O)=O)c2)nn2c(C)nnc12: 97
CC(C)Oc1ccccc1C(=O)Nc1ccccc1C(=O)Nc1cccc(S(=O)(=O)C(F)(F)F)c1: 90

Could you report Population Normal (%) for every entry in the following list?
1. O=C(c1cc2c(cc1F)OC(c1ccc(F)cc1)(c1ccc(Cl)cc1Cl)O2)N1CCOCC1 (centres undefined)
2. CN1CCN(Cc2ccc(Nc3ncc(Cl)c(Nc4ccccc4S(=O)(=O)N(C)C)n3)cc2)CC1
3. COc1cc(Nc2nccc(-c3cnn4nc(OC)ccc34)n2)cc(C(F)(F)F)c1
4. C[C@]12CC[C@@H]3c4ccc(O)cc4CC[C@H]3[C@@H]1CC[C@@H]2O
5. Cc1ccccc1C(c1ccccc1C)N1C2CCC1CC(O)(c1ccccc1)C2 (centres undefined)
6. CCc1ccc(OCc2ccccc2C(=O)Nc2ccc3nc(C)cc(N)c3c2)cc1.Cl

1. 91
2. 79
3. 72
4. 97
5. 85
6. 36

###

System: Fibroblast
Assay: Multiplex assay against human fibroblast
Assay type: toxicity, cell-based
Conditions: 12 h, 1 µM, compound concentration 1 uM, replicate 1
I'd appreciate it if you could supply Population Fragmented Nuclei (%) values for the items below.

Cl.O=C(O)c1cc(-c2ccc(C3CCNCC3)cc2)c2ccc(-c3ccc(C(F)(F)F)cc3)cc2c1: 31%
Cc1ccccc1C(c1ccccc1C)N1C2CCC1CC(O)(c1ccccc1)C2 (centres undefined): 14%
CNC(=O)Nc1ccc2c(c1)[C@@]1(CC2)OC(=O)N(CC(=O)N(Cc2ccc(F)cc2)[C@@H](C)C(F)(F)F)C1=O: 21%

Now consider a different compound.
What measured Population Fragmented Nuclei (%) goes with "Cc1c[nH]c2nccc(Oc3c(F)cc(Nc4cc(Cl)nc(N)n4)cc3F)c12" ?
25%

###

System: Fibroblast
Test: Multiplex assay against human fibroblast
Format: toxicity, cell-based
Settings: 12 h, 1 µM, compound concentration 1 uM, replicate 2
Binary label based on Population Fragmented Nuclei (%) with cut-off 9%: below gives YES, not below gives NO.

Example entries begin here.
C=CC(=O)Nc1cccc(Oc2nc(Nc3ccc(N4CCN(C)CC4)cc3OC)ncc2Cl)c1: NO
COC(=O)C1=C(C)NC(C)=C(C(=O)OCCCN2CCC(c3ccccc3)(c3ccccc3)CC2)[C@H]1c1cccc([N+](=O)[O-])c1: YES
CCc1ccc(OCc2ccccc2C(=O)Nc2ccc3nc(C)cc(N)c3c2)cc1.Cl: NO
CC(C)NC(=O)N1CC[C@H](NC2=Nc3cc(F)ccc3N(CC(F)F)c3ccc(Cl)cc32)C1: YES
COc1cc(Nc2nccc(-c3cnn4nc(OC)ccc34)n2)cc(C(F)(F)F)c1: YES

Hello, is Population Fragmented Nuclei (%) of the following molecule strictly smaller than 9%? "O=c1cc(N2CCOCC2)oc2c(-c3cccc4c3sc3ccccc34)cccc12"
NO

Decide: Population Fragmented Nuclei (%) of "CCCSc1nc(N[C@@H]2C[C@H]2c2ccc(F)c(F)c2)c2nnn([C@@H]3C[C@H](OCCO)[C@@H](O)[C@H]3O)c2n1" strictly below 9%?
YES

###

Test system: HEK-293T
Test: Incucyte cell viability with HEK293T; further: filed as whole numbers so only -1 and 0 and 1 occur
Assay type: toxicity, cell-based
Conditions: human, 18 h, 10 µM, compound concentration 10 uM, replicate number 2, timepoint 18 hours
measurement kind: Growth Rate

Example entries and their recorded answers appear below.
CCOC(=O)c1cc2cc(-c3cc(C(=O)NCc4ccc(C(=O)O)cc4)nn3C)ccc2[nH]1 [BI 4394]: 1
CC(C)(O)c1ccccc1CC[C@@H](SCC1(CC(=O)[O-])CC1)c1cccc(/C=C/c2ccc3ccc(Cl)cc3n2)c1.[Na+] [MONTELUKAST SODIUM]: 0
C[C@H](NC[C@H](O)CP(=O)(O)CC1CCCCC1)c1ccc(Cl)c(Cl)c1.Cl: 0
COc1cc(C(=O)NS(=O)(=O)c2ccccc2C)ccc1Cc1cn(C)c2ccc(NC(=O)OC3CCCC3)cc12 [ZAFIRLUKAST]: 0
COc1ccc(-c2ccc3cc(C(=O)O)ccc3c2)cc1C12CC3CC(CC(C3)C1)C2: 1

Please go through the list and note Growth Rate for each molecule.
1. CCOc1cn(-c2ccc(F)cc2C)nc1C(=O)Nc1ccc(Oc2ccnc3cc(OC)c(OC)cc23)c(F)c1
2. CC#CC(=O)N1CCC[C@H]1c1nc(-c2ccc(C(=O)Nc3ccccn3)cc2)c2c(N)nccn12 [ACALABRUTINIB]

[1, 1]

Hey, quick one: what's Growth Rate for each of these?
1. CC(C)N(CCCNC(=O)Nc1ccc(C(C)(C)C)cc1)C[C@H]1O[C@@H](n2cc(Br)c3c(N)ncnc32)[C@H](O)[C@@H]1O
2. O=C(NCC(=O)N1CCCC1)Nc1ccc2cnccc2c1
3. CN(C)C(=O)Cn1cc(-c2nc([C@@](C)(c3ccc(-c4cnc(N)nc4)cc3)C3CC3)no2)cn1 [BI 665915]
4. C[C@]1(C(=O)N(CCCC(=O)O)Cc2cccc(Cl)c2)CCN1C(=O)c1csc2ccccc12 [GLPG-0974]
5. CCCOc1ccc([C@H]2[C@H](C(=O)O)[C@@H](c3ccc4c(c3)OCO4)CN2CC(=O)Nc2c(CC)cccc2CC)cc1 [A-192621]
6. O=C(NCc1ncc(C(F)(F)F)cc1Cl)c1ccc2c(c1)C1(CCS(=O)(=O)CC1)[C@@H](C1CC1)N2S(=O)(=O)c1ccc(F)cc1 [BAY-786]
7. Cc1cc(C(C)(C)C)c(O)c(C)c1CC1=NCCN1.Cl [OXYMETAZOLINE HYDROCHLORIDE]

1: 1; 2: 1; 3: 1; 4: 0; 5: 1; 6: 1; 7: 0

# return Growth Rate for each item in the list
1. Cc1csc(NC(=O)c2cc(F)cc(Oc3cncnc3)c2)n1
2. O=C(O)Cn1c(C(=O)Nc2nc(-c3ccccc3Cl)cs2)cc2ccccc21
3. C[C@H](N)COC(=O)[C@@H](CCCCN)NC(=O)Cc1c(-c2ccc3ccccc3c2)[nH]c2c1ccc1ccccc12

[0, 0, 0]

###

Exercise: state measured Population Membrane Permeable-Phenotype (%) for each of the compounds provided.
Test system: U2OS
Assay: Multiplex assay against U2OS
Format: toxicity, cell-based
Details: human, 24 h, 10 µM, compound concentration 10 uM, replicate 2
Answers are plain numbers, in %.

These recorded examples may help you get a feel for the data.
CNC(=O)Nc1ccc2c(c1)[C@@]1(CC2)OC(=O)N(CC(=O)N(Cc2ccc(F)cc2)[C@@H](C)C(F)(F)F)C1=O [A-486]: 14
COc1cc(Nc2nccc(-c3cnn4nc(OC)ccc34)n2)cc(C(F)(F)F)c1: 0
CC(C)Oc1ccccc1C(=O)Nc1ccccc1C(=O)Nc1cccc(S(=O)(=O)C(F)(F)F)c1: 91

Consider now this further compound.
Which value of Population Membrane Permeable-Phenotype (%) has been reported for CC1=C(C(=O)Nc2cc3cn[nH]c3cc2F)C(c2ccc(C(F)(F)F)cc2)CC(=O)N1 (centres undefined) in the records?
4

###

Would you mind telling me the reported Total Cell Count of each entry?
System: Fibroblast
Assay: Multiplex assay against human fibroblast
Format: toxicity, cell-based
Conditions: 12 h, 10 µM, compound concentration 10 uM, replicate 2

Solved cases (7 shown):
C=CC(=O)Nc1ccc2[nH]c(=O)n(C3CCN(Cc4ccc(-c5nc6cc[nH]c(=O)c6cc5-c5ccccc5)cc4)CC3)c2c1 [Borussertib]: 100
Cc1nc(N2CC[C@H](O)C2)ncc1-c1cc(C(F)(F)F)cc2[nH]ncc12: 79
C=CC(=O)Nc1cccc(Oc2nc(Nc3ccc(N4CCN(C)CC4)cc3OC)ncc2Cl)c1: 100
CC1=C(C(=O)Nc2cc3cn[nH]c3cc2F)C(c2ccc(C(F)(F)F)cc2)CC(=O)N1 (stereo not drawn): 97
COC(=O)C1=C(C)NC(C)=C(C(=O)OCCCN2CCC(c3ccccc3)(c3ccccc3)CC2)[C@H]1c1cccc([N+](=O)[O-])c1 [NIGULDIPINE]: 87
Cc1ccccc1C(c1ccccc1C)N1C2CCC1CC(O)(c1ccccc1)C2 (stereo not drawn): 71
Cc1ccc(C)c(Oc2ccncc2C(=O)N2CCN(C3CC3)c3ccccc32)c1: 59

Now consider the entry below.
Find the measured Total Cell Count: item Cc1c[nH]c2nccc(Oc3c(F)cc(Nc4cc(Cl)nc(N)n4)cc3F)c12 [BAY-549] , target or system Fibroblast.
62

###

Test system: HEK-293T
Test: Multiplex assay against HEK293T
Assay type: toxicity, cell-based
Settings: human, 24 h, 10 µM, compound concentration 10 uM, replicate 1
measurement kind: Population Membrane Permeable-Phenotype (%)
One number for each entry, in %.

Consider the following illustrative entries.
O=C(c1cc2c(cc1F)OC(c1ccc(F)cc1)(c1ccc(Cl)cc1Cl)O2)N1CCOCC1 (centres undefined): 2
O=c1[nH]c2ccccc2n1C1CCN(Cc2ccc(-c3[nH]c4cc5ncnc5cc4nc3-c3ccccc3)cc2)CC1: 9
CC(C)(C)NC[C@H](O)COc1nsnc1N1CCOCC1: 2

Item under review: "CC(C)NC(=O)N1CC[C@H](NC2=Nc3cc(F)ccc3N(CC(F)F)c3ccc(Cl)cc32)C1" . Reported Population Membrane Permeable-Phenotype (%)?
0

Origin of measurements: ChEMBL document CHEMBL4689842
